Assay Remarks: melting temperature; melt of duplexes
Condition Parameters: sodium 0.0675 M; strand 1 µM
Assay Metric: Tm (°C)

> print(dat)
                                  substance  assay.metric  display.unit  readout.number
1  CGACGTGCTTAATGTGCTG+CAGCACATAAAGCACGTCG ((((((((((.((((((((+)))))))).))))))))))            Tm            °C            56.2
2  CGACGTGCTTGATGTGCTG+CAGCACATGAAGCACGTCG ((((((((((.((((((((+)))))))).))))))))))            Tm            °C            56.6
3  CGACGTGCGAGATGTGCTG+CAGCACATCATGCACGTCG ((((((((..(((((((((+)))))))))..))))))))            Tm            °C            56.7
4  CGACGTGCATCATGTGCTG+CAGCACATGTGGCACGTCG ((((((((..(((((((((+)))))))))..))))))))            Tm            °C              55

Cited source: the array DNA melting data of Ke et al.
